- testedTarget: AChE (from the electric eel) (Electrophorus electricus)
- Sequence (O42275 24-633): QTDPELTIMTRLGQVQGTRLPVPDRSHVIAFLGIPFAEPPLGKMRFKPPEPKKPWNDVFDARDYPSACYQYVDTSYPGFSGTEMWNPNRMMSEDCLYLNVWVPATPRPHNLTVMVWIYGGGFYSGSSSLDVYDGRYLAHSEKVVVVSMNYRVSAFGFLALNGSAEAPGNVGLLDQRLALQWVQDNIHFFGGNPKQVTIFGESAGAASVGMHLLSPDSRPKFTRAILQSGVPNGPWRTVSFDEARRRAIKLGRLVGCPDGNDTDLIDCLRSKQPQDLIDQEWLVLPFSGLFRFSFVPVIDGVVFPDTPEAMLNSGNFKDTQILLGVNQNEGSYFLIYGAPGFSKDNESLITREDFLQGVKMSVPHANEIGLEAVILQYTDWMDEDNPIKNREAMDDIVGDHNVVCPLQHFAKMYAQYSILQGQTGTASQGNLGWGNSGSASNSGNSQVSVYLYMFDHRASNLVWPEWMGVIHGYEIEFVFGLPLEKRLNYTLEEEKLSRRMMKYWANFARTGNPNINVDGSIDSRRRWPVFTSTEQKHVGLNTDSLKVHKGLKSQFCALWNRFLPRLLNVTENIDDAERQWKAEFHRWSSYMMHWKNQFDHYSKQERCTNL
pIC50: −log10 of the molar value.
Values of pIC50 greater than or equal to 6 map to fulfilled; values below map to not fulfilled.

1. O=C(NCCCCCCCCCNc1c2c(nc3ccccc13)CCC2)c1cc(Cl)cc(Cl)c1 [Compound 3h] :: fulfilled
2. O=C(NCCCCCNc1c2c(nc3ccccc13)CCC2)c1cc(Cl)cc(Cl)c1 [Compound 3d] :: fulfilled
3. O=C(NCCCCCCCNc1c2c(nc3ccccc13)CCC2)c1cc(Cl)cc(Cl)c1 [Compound 3f] :: fulfilled
4. O=C(NCCNc1c2c(nc3ccccc13)CCC2)c1cc(Cl)cc(Cl)c1 [Compound 3a] :: not fulfilled

Task item: Quick check: does O=C(NCCCCCCNc1c2c(nc3ccccc13)CCC2)c1cc(Cl)cc(Cl)c1 [Compound 3e] have pIC50 greater than or equal to 6?
Reply: fulfilled

====

- testedTarget: BuChE (from equine serum) (Equus caballus)
- Construct: purchased Sigma Aldrich; host or cells: equine serum
- experimentalProtocol: biochemical
- conditionDescription: IC50(AChE)/IC50(BuChE)
Let's look at some compounds and their measured Selectivity for BuChE.
Lab note: jot down the number only; don't add units.

Observe how each entry below is paired with its result.
1) O=C(NCCNc1c2c(nc3ccccc13)CCC2)c1cc(Cl)cc(Cl)c1 :: 6.88
2) O=C(NCCCCCCCCCNc1c2c(nc3ccccc13)CCC2)c1cc(Cl)cc(Cl)c1 :: 1.10
3) O=C(NCCCCCCNc1c2c(nc3ccccc13)CCC2)c1cc(Cl)cc(Cl)c1 :: 1.13
4) O=C(NCCCCCCCNc1c2c(nc3ccccc13)CCC2)c1cc(Cl)cc(Cl)c1 :: 2.16
5) O=C(NCCCCCCCCNc1c2c(nc3ccccc13)CCC2)c1cc(Cl)cc(Cl)c1 :: 4.50
6) O=C(NCCCCCNc1c2c(nc3ccccc13)CCC2)c1cc(Cl)cc(Cl)c1 :: 0.19

Input `O=C(NCCCCNc1c2c(nc3ccccc13)CCC2)c1cc(Cl)cc(Cl)c1` . Output Selectivity for BuChE: 9.18

====

- experimentalProtocol: LogP assay (RP-HPLC)
- Type: physicochemical
- conditionDescription: pH 11 mobile phases, read-out: logP Experimental
quantity: chromatographic logP
Lab note: jot down the number only; don't add units.

Input `O=C(NCCCCCCNc1c2c(nc3ccccc13)CCC2)c1cc(Cl)cc(Cl)c1` . Output chromatographic logP: 5.44

====

Let's look at some compounds and their measured pIC50.
- testedTarget: BuChE (from equine serum) (Equus caballus, UniProt P81908)
- Construct: purchased Sigma Aldrich; host or cells: equine serum
- Sequence (P81908 whole entry): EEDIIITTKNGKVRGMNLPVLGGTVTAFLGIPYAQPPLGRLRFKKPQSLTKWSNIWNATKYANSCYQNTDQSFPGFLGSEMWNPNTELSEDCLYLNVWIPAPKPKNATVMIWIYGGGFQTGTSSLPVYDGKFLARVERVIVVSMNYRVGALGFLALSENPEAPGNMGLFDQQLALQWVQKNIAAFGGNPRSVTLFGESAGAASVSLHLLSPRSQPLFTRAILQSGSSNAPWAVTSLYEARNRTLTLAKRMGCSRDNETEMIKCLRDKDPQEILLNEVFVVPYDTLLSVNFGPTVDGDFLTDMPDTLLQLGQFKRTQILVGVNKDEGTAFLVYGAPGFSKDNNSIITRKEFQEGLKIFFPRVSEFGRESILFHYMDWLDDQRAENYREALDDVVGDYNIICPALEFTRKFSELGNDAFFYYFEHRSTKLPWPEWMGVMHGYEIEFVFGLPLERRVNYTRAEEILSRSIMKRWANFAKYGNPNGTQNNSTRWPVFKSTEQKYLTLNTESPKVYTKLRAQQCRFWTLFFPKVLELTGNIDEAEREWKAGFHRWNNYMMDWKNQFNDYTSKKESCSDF
- experimentalProtocol: biochemical
- conditionDescription: means ± SD of three experiments
// pIC50: -log10(molar conc.)

1) O=C(NCCCCCCNc1c2c(nc3ccccc13)CCC2)c1cc(Cl)cc(Cl)c1 :: 6.94
2) O=C(NCCCCCCCCNc1c2c(nc3ccccc13)CCC2)c1cc(Cl)cc(Cl)c1 :: 6.48
3) O=C(NCCCNc1c2c(nc3ccccc13)CCC2)c1cc(Cl)cc(Cl)c1 :: 6.05
4) O=C(NCCCCCNc1c2c(nc3ccccc13)CCC2)c1cc(Cl)cc(Cl)c1 :: 5.95
5) O=C(NCCCCCCCNc1c2c(nc3ccccc13)CCC2)c1cc(Cl)cc(Cl)c1 :: 6.93
6) O=C(NCCNc1c2c(nc3ccccc13)CCC2)c1cc(Cl)cc(Cl)c1 :: 6.65
7) O=C(NCCCCNc1c2c(nc3ccccc13)CCC2)c1cc(Cl)cc(Cl)c1 :: 6.90

Next compound, please.
Input `O=C(NCCCCCCCCCNc1c2c(nc3ccccc13)CCC2)c1cc(Cl)cc(Cl)c1` . Output pIC50: 6.88
